system: YST-1; experiment: % inhibition of CellTiter-Glo viability at highest tested concentration (72 h), relative to DMSO and benzethonium chloride controls; higher = more inhibition
Note to self: values exactly at 20% are yes (1). So % inhibition at or above 20% is yes (1), below is no (0).

>  <MOLECULE>
C[C@]12C=CC(=O)C=C1CC[C@@H]1[C@@H]2C(=O)C[C@@]2(C)[C@H]1CC[C@]2(O)C(=O)CO [Prednisone] (max concentration tested 10000 nM)

>  <LABEL_CLASS>
no (0)

$$$$
>  <MOLECULE>
C[C@]12CC[C@@H]3c4ccc(O)cc4C[C@@H](CCCCCCCCC[S+]([O-])CCCC(F)(F)C(F)(F)F)[C@H]3[C@@H]1CC[C@@H]2O (stereo partly drawn) [Fulvestrant] (max concentration tested 1000 nM)

>  <LABEL_CLASS>
no (0)

$$$$
>  <MOLECULE>
COc1cc2c(N3CCN(C(=O)Nc4ccc(OC(C)C)cc4)CC3)ncnc2cc1OCCCN1CCCCC1 [Tandutinib] (max concentration tested 1000 nM)

>  <LABEL_CLASS>
no (0)

$$$$
>  <MOLECULE>
CC(C)(C)c1nc(-c2cccc(NS(=O)(=O)c3c(F)cccc3F)c2F)c(-c2ccnc(N)n2)s1 [Dabrafenib] (max concentration tested 2500 nM)

>  <LABEL_CLASS>
no (0)

$$$$
>  <MOLECULE>
O=C(NOCCO)c1ccc2cncn2c1Nc1ccc(I)cc1F [GDC-0623] (max concentration tested 2500 nM)

>  <LABEL_CLASS>
no (0)

$$$$
>  <MOLECULE>
C=CCN(/C=C1/C(=O)O[C@H](COC)[C@@]2(C)C1=C(O)C(=O)C1=C2[C@H](OC(C)=O)C[C@]2(C)C(=O)CC[C@@H]12)CC=C [Sonolisib] (max concentration tested 10000 nM)

>  <LABEL_CLASS>
no (0)

$$$$
>  <MOLECULE>
C[C@@H](Oc1cc(-c2cnn(C3CCNCC3)c2)cnc1N)c1c(Cl)ccc(F)c1Cl [Crizotinib] (max concentration tested 1000 nM)

>  <LABEL_CLASS>
yes (1)

$$$$
>  <MOLECULE>
Cn1cc(C2=Nc3cc(NC(=O)C(N)C4CCCCC4)cc4c3C2=CNNC4=O)cn1 (stereo not drawn) (max concentration tested 10000 nM)

>  <LABEL_CLASS>
yes (1)

$$$$
>  <MOLECULE>
CCNc1nc(Nc2cc(F)c(C(=O)N3CCOCC3)cc2OC)ncc1C(F)(F)F [GNE-7915] (max concentration tested 1000 nM)

>  <LABEL_CLASS>
no (0)

$$$$
>  <MOLECULE>
O=C(CCCCCCC(=O)Nc1ccc([C@H]2O[C@@H](CSc3nc(-c4ccccc4)c(-c4ccccc4)o3)C[C@@H](c3ccc(CO)cc3)O2)cc1)NO [Tubacin] (max concentration tested 10000 nM)

>  <LABEL_CLASS>
yes (1)

$$$$
>  <MOLECULE>
Cc1cc2c(C(=O)NC[C@H](C)c3ccccc3)c(O)c(O)cc2c(O)c1-c1c(C)cc2c(C(=O)NC[C@H](C)c3ccccc3)c(O)c(O)cc2c1O [Sabutoclax] (max concentration tested 25000 nM)

>  <LABEL_CLASS>
yes (1)

$$$$
>  <MOLECULE>
CN(C[C@@H]1COCCO1)S(=O)(=O)Nc1ccc2ccc3ncc(-c4cnn(C)c4)cc3c(=O)c2c1 [MK-2461] (max concentration tested 10000 nM)

>  <LABEL_CLASS>
yes (1)

$$$$
>  <MOLECULE>
C[C@@H]1CCN(C(=O)CC#N)C[C@@H]1N(C)c1ncnc2[nH]ccc12 [Tofacitinib] (max concentration tested 5000 nM)

>  <LABEL_CLASS>
no (0)

$$$$
>  <MOLECULE>
NCC(=O)Nc1ccc(-n2nc(C(F)(F)F)cc2-c2ccc3c(ccc4ccccc43)c2)cc1 (max concentration tested 25000 nM)

>  <LABEL_CLASS>
yes (1)

$$$$
>  <MOLECULE>
CCN1CCN(c2ccc(Nc3cc(N(C)C(=O)Nc4c(Cl)c(OC)cc(OC)c4Cl)ncn3)cc2)CC1 [NVP-BGJ398] (max concentration tested 1000 nM)

>  <LABEL_CLASS>
no (0)

$$$$
>  <MOLECULE>
CN1CC[C@@H](NC(=O)Nc2ccc(C#N)cc2)C[C@@H]1c1nc2ccccc2[nH]1 [Glasdegib] (max concentration tested 1000 nM)

>  <LABEL_CLASS>
no (0)

$$$$
>  <MOLECULE>
CC1(C)CNc2cc(NC(=O)c3cccnc3NCc3ccncc3)ccc21 [Motesanib] (max concentration tested 10000 nM)

>  <LABEL_CLASS>
no (0)

$$$$
>  <MOLECULE>
O=NN(CCCl)C(=O)NCCCl [Carmustine] (max concentration tested 10000 nM)

>  <LABEL_CLASS>
no (0)

$$$$
